Item-by-item account of melting point

O=C1c2c(c(=O)n3nc(-c4ccccc4)cc3n2Cc2ccccc2)CN1Cc1ccccc1: 232 to 234 °C
Cc1ccc(NC(=O)N[C@@H]2N=C(c3ccccc3)c3ccccc3N(C)C2=O)cc1: 233 to 235 °C

Data request: melting point for Cc1nnc(-c2ccc3occ(-c4cc(F)ccc4Cl)c3c2)o1 ?
Data returned: 130 to 131 °C

Data request: Next entry: CN(C)c1ccc(NC(=O)C2C(=O)C3CC[C@](C)(C2=O)C3(C)C)cc1 (stereo not given in full)
Data returned: 93 to 95 °C

Data request: Request: COC1=C(OC)C(=O)C2=C(CC(CCCCOc3ccc(C(=O)O)cc3)C2)C1=O
Data returned: 149 to 153 °C

Data request: Now consider CCOC(=O)c1ccc(CNC(=O)CCl)cc1O and answer again.
Data returned: 120 to 121 °C

Data request: Now consider CC(O)c1cc(I)c(O)c(Cl)n1 (stereo not given) .
Data returned: 114 to 116 °C
